Measured folding stability dG of individual entries
B1: HHH_rd1_0493 (parent)
chain: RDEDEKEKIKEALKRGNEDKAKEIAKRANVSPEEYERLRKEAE

variants of: B1; assay: folding stability dG (cDNA display proteolysis); higher = more stable; conditions: PBS, room temperature
Give the number first and the unit second.

# count of solved cases: 5
E18P	2.48 kcal/mol
E18T	2.84 kcal/mol
R15K	2.91 kcal/mol
R27W	2 kcal/mol
E3W	3 kcal/mol

q: I'd like to know its folding stability dG. The variant in question is I9L
a: 2.28 kcal/mol

q: I'd like to know its folding stability dG. The variant in question is S31E
a: 2.17 kcal/mol

q: I'd like to know its folding stability dG. The variant in question is L13A
a: 0.528 kcal/mol
